Cited source for all entries: patent US20240109896A1

tested on: Hep3B cells; assay: Human hepatoma cell Hep3B survival test (CellTiter-Glo); format: cell-based; settings: Homo sapiens, treated 72 hours, read-out: inhibitory activity on Hep3B cell proliferation IC50
pIC50: −log10 of the molar value.
Reported pIC50 values for the following compounds.

>>> recorded_result("C=CC(=O)N1CC[C@H](n2nc(C#Cc3cc(OC)cc(OC)c3)c3c(N)n[nH]c(=O)c32)C1 [Compound 26]")
"> 8.00"

(Q) pIC50 lookup needed for C=CC(=O)N1CC[C@H](n2nc(-c3cc4cc(C)cc(OC)c4s3)c3c(N)n[nH]c(=O)c32)C1 [Compound 36] , thanks.
(A) > 8.00

====

molecular target: UniProtKB P21802; test: In vitro activity inhibition test for kinase FGFR2; type: biochemical; details: kinase assay, 25° C.; read-out: Inhibition of separase IC50 (nM) FGFR2
MEASUREMENT LABEL: IC50

>>> recorded_result("C=CC(=O)N1CCC2(CC(Nc3nc(N)c(C(N)=O)c(C#Cc4cc(OC)cc(OC)c4)n3)C2)C1 (stereo not drawn)")
"10 to 100 nM"
>>> recorded_result("C=CC(=O)N1CCC(c2nc(N)c(C(N)=O)c(C#Cc3cc(OC)cc(OC)c3)n2)C1 (stereo not drawn)")
"< 10 nM"
>>> recorded_result("C=CC(=O)N1CC[C@H](Nc2ncc(C#N)c(C#Cc3cc(OC)cc(OC)c3)n2)C1")
"10 to 100 nM"
>>> recorded_result("C=CC(=O)N1CCC2(CC1)CC(Nc1nc(N)c(C(N)=O)c(C#Cc3cc(OC)cc(OC)c3)n1)C2")
"10 to 100 nM"
>>> recorded_result("C=CC(=O)N1CC[C@H](n2nc(C#Cc3cc(OC)cc(OC)c3)c3c(N)n[nH]c(=O)c32)C1")
"< 10 nM"

(Q) IC50 lookup needed for `CC#CC(=O)N1CC[C@H](n2cc(C#Cc3cc(OC)cc(OC)c3)c3c(N)n[nH]c(=O)c32)C1` , thanks.
(A) < 10 nM

(Q) What about this molecule? `C=CC(=O)N1CC[C@H](n2nc(C#Cc3c(Cl)c(OC)cc(OC)c3Cl)c3c(N)n[nH]c(=O)c32)C1`
(A) < 10 nM

(Q) What about this molecule? `C=CC(=O)N[C@H]1CCN(c2nc(N)c(C(N)=O)c(C#Cc3cc(OC)cc(OC)c3)n2)C1`
(A) < 10 nM

(Q) What about this molecule? `CC#CC(=O)N1CCC[C@H](n2nc(C#Cc3cc(OC)cc(OC)c3)c3c(N)n[nH]c(=O)c32)C1`
(A) < 10 nM

(Q) What about this molecule? `C=CC(=O)N1CC[C@H](n2cc(-c3ccc4ccccc4c3)c3c(N)n[nH]c(=O)c32)C1`
(A) < 10 nM

(Q) What about this molecule? `C=CC(=O)N1CC[C@H](n2cc(-c3cc4ccccc4o3)c3c(N)n[nH]c(=O)c32)C1`
(A) < 10 nM

(Q) What about this molecule? `C=CC(=O)N1CC[C@H](Nc2ncc(F)c(C#Cc3cc(OC)cc(OC)c3)n2)C1`
(A) 10 to 100 nM

====

target: FGFR2 (Homo sapiens); assay: In vitro activity inhibition test for kinase FGFR2; format: biochemical; conditions: kinase assay, 25° C.; read-out: Inhibition of separase IC50 (nM) FGFR2
Sequence (P21802 22-821): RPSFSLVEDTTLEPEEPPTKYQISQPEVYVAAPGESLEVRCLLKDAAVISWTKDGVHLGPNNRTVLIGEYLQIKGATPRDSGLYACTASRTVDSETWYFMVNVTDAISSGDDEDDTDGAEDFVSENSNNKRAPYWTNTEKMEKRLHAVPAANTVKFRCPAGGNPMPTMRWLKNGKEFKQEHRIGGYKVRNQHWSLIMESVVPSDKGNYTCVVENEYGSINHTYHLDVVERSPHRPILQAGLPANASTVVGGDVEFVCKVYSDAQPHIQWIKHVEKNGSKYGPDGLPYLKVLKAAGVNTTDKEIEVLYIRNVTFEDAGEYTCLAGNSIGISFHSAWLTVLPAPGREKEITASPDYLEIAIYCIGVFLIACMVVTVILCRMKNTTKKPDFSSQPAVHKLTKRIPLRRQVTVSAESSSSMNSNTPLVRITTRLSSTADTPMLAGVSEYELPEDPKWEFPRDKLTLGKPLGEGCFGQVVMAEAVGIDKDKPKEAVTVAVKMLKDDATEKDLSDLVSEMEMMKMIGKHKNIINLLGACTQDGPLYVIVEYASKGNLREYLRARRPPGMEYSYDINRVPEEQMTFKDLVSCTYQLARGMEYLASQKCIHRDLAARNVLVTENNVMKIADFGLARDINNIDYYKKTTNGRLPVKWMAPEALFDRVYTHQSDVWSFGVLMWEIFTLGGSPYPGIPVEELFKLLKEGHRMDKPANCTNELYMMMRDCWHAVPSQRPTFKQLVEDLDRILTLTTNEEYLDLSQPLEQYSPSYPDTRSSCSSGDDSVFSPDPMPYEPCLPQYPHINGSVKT
MEASUREMENT LABEL: IC50

>>> recorded_result("CC#CC(=O)N1CC[C@H](Nc2nc(N)c(C(N)=O)c(C#Cc3cc(OC)cc(OC)c3)n2)C1")
"< 10 nM"
>>> recorded_result("C=CC(=O)N1CCC[C@H](Nc2nc(N)c(C(N)=O)c(C#Cc3cc(OC)cc(OC)c3)n2)C1")
"10 to 100 nM"
>>> recorded_result("C=CC(=O)N1CC[C@H](n2cc(-c3cc4ccccc4n3C)c3c(N)n[nH]c(=O)c32)C1")
"< 10 nM"
>>> recorded_result("C=CC(=O)N1CC[C@H](Nc2nc(N)c(C(N)=O)c(C#Cc3cc(OC)cc(OC)c3)n2)C1")
"< 10 nM"
>>> recorded_result("C=CC(=O)N1CC[C@H](n2nc(-c3cc4cc(C)cc(OC)c4s3)c3c(N)n[nH]c(=O)c32)C1")
"< 10 nM"
>>> recorded_result("C=CC(=O)N1CC[C@@H](Nc2nc(N)c(C(N)=O)c(C#Cc3cc(OC)cc(OC)c3)n2)C1")
"< 10 nM"
>>> recorded_result("C=CC(=O)N1CC[C@H](n2nc(C#Cc3c(F)c(OC)cc(OC)c3F)c3c(N)n[nH]c(=O)c32)C1")
"< 10 nM"
>>> recorded_result("CC#CC(=O)N1CCC[C@H](n2cc(C#Cc3cc(OC)cc(OC)c3)c3c(N)n[nH]c(=O)c32)C1")
"< 10 nM"
>>> recorded_result("C=CC(=O)N1CC[C@H](Nc2ncc(C(N)=O)c(C#Cc3cc(OC)cc(OC)c3)n2)C1")
"< 10 nM"
>>> recorded_result("C=CC(=O)N1CCC[C@H](n2cc(C#Cc3cc(OC)cc(OC)c3)c3c(N)n[nH]c(=O)c32)C1")
"< 10 nM"

(Q) IC50 lookup needed for `C=CC(=O)N1CCC[C@H](n2nc(C#Cc3cc(OC)cc(OC)c3)c3c(N)n[nH]c(=O)c32)C1` , thanks.
(A) < 10 nM
